Study System: Muscarinic acetylcholine receptor M5 (Homo sapiens)
Sequence (P08912 whole entry): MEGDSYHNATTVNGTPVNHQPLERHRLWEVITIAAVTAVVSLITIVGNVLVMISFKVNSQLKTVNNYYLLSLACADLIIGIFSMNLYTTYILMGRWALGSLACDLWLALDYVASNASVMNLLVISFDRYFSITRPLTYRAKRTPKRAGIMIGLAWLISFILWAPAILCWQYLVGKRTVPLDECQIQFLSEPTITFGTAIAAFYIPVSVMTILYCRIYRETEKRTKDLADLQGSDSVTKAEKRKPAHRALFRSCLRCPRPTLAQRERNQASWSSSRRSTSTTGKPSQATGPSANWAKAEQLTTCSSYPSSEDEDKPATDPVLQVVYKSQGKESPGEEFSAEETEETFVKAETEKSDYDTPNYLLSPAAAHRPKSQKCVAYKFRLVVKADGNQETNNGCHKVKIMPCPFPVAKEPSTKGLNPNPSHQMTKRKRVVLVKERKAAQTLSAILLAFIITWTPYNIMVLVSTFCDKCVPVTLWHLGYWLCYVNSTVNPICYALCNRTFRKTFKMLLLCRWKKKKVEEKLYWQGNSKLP
Readout Label: Ki (nM)
Respond numerically; units are nM and should not be typed.

So what does the record say about Ki for C[N+]1(C)CCC(OC(=O)C(c2ccccc2)c2ccccc2)CC1 ?
0.22

====

Assay Text: Binding affinity to P2X receptor (unknown origin) by radioligand displacement assay
Set-up: species or system Homo sapiens
Readout Label: IC50 (nM)
Return type: number; implicit unit nM.

I'd like to know its IC50. The compound in question is Nc1ncnc2c1ncn2[C@@H]1O[C@H](COP(=O)(O)CP(=O)(O)OP(=O)(O)O)[C@@H](O)[C@H]1O
2.1

====

Assay Text: Binding affinity to human PCP receptor by radioligand displacement assay
Structures can show the parent of a compound that is named as a salt.
Readout Label: IC50 (nM)
Entry rule: numbers only, all in nM.

Returns the measured IC50 for the input molecule. Input: C[C@]12N[C@H](Cc3ccccc31)c1ccccc12 [DIZOCILPINE MALEATE]
4.3

====

Study System: 5-hydroxytryptamine receptor 2B (Homo sapiens, UniProt P41595)
Sequence (P41595 whole entry): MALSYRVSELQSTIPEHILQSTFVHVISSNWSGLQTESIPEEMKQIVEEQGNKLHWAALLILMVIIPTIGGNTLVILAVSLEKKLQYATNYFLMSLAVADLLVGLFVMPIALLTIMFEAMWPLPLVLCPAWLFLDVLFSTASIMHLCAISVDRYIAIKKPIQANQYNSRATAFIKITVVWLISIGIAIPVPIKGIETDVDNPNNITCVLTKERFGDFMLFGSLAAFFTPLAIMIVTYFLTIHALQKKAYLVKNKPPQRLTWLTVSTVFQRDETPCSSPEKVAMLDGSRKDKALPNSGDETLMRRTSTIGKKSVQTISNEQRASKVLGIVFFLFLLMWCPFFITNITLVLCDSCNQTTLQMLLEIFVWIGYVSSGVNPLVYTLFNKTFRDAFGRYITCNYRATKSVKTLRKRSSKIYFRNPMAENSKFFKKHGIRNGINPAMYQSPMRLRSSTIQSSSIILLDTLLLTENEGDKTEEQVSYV
Assay Text: Binding affinity to human 5-HT2B receptor by radioligand displacement assay
Readout Label: IC50 (nM)
The answer is to be given in nM; state only the numeric part.

Recorded IC50 for COc1cc(CC(C)N)c(OC)cc1I (racemic) with 5-hydroxytryptamine receptor 2B (Homo sapiens, UniProt P41595), please?
4

====

Assay Text: AUC (0 to t) in CD1 mouse at 10 mg/kg, po
Type: ADME, organism-based
Set-up: dose 10 mg/kg, route oral
Experimental Parameters: plasma
Attribute: AUC(0-t)
Could you give me the number in ng·h/mL? Just the number is fine.

>  <Smi>
COc1ccccc1N1CCN(CCCCCN2Cc3c(Cl)nc4ccccc4c3C2=O)CC1

>  <Units Label>
ng·h/mL

>  <Readout Number>
157

$$$$

Now for a further compound.
Look up AUC(0-t): COc1ccccc1N1CCN(CCCCCN2Cc3ccc4ccccc4c3C2=O)CC1
212

====

Assay Text: Binding affinity to peripheral BZD receptor (unknown origin) by radioligand displacement assay
Set-up: species or system Homo sapiens
Readout Label: pKi
Bear in mind: pKi is minus log10 of a mol/L concentration; give just that figure.

What value of pKi has been recorded for this entry: CCC(C)N(C)C(=O)c1cc2ccccc2c(-c2ccccc2Cl)n1 (stereo unspecified) [PK-11195]
9.05

====

Assay Text: Binding affinity to P2Y receptor (unknown origin) by radioligand displacement assay
Design: species or system Homo sapiens
Readout Label: pKi
Notebook: values listed as pKi are -log10 of the concentration (mol/L).

Returns the measured pKi for the input compound. Input: Nc1ncnc2c1ncn2[C@H]1C[C@H](O)[C@@H](COP(O)(=S)OP(=O)(O)OP(=O)(O)O)O1 (stereo partly specified)
7.64

====

Assay Text: Tmax in CD1 mouse at 10 mg/kg, po
Assay type: ADME, organism-based
Parameters: dose 10 mg/kg, route oral
Experimental Parameters: in vivo
Reported Tmax by item:
State the answer as a number, implicitly in min.

>  <Smi>
COc1ccccc1N1CCN(CCCCCN2Cc3c(Cl)nc4ccccc4c3C2=O)CC1

>  <Readout Label>
Tmax

>  <Readout Number>
60

$$$$

Next item in the queue.
// returns reported Tmax for input COc1ccccc1N1CCN(CCCCCN2Cc3ccc4ccccc4c3C2=O)CC1
18

====

Assay Text: Binding affinity to P2Y receptor (unknown origin) by radioligand displacement assay
Design: species or system Homo sapiens
Readout Label: pIC50
The read-out pIC50 is expressed as -log10 of concentration in moles per litre.

Fill in: pIC50 of Nc1ncnc2c1ncn2[C@H]1C[C@H](O)[C@@H](COP(O)(=S)OP(=O)(O)OP(=O)(O)O)O1 (stereo partly specified) is ___
7.35

====

Study System: D(2) dopamine receptor (Homo sapiens, UniProt P14416)
Sequence (P14416 whole entry): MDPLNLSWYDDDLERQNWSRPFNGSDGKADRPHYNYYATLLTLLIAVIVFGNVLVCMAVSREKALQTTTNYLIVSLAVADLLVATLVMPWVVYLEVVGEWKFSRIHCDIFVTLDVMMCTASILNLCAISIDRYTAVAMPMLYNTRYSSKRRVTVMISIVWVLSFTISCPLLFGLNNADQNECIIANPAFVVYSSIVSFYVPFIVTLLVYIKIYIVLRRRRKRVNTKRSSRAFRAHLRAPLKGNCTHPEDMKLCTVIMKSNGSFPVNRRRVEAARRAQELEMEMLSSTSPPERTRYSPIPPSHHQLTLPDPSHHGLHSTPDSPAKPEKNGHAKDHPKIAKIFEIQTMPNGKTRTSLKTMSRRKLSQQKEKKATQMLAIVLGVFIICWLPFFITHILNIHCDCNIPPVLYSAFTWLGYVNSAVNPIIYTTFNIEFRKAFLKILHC
Assay Text: Inhibition of human recombinant dopamine D2S receptor expressed in HEK293 cells
Readout Label: pIC50
Quick note: pIC50 means taking -log10 of the concentration in moles per liter.

Given the compound COc1ccccc1N1CCN(CCCCCN2Cc3ccc4ccccc4c3C2=O)CC1 , what is its reported pIC50?
8.46
